Listing: T/C of selected compounds
test system: L1210 leukemia ip in BDF1 mice, survival T/C; assay: NCI In Vivo Anticancer Drug Screen. Data for tumor model L1210 Leukemia (intraperitoneal) in B6D2F1 (BDF1) mice; conditions: endpoint: mean survival time; dose: 100.0 mg/kg/injection; schedule: Q04DX003 (ip); vehicle: saline with Tween-80; higher = longer survival
Inconclusive results and toxic doses are left out.

NC(=O)c1ccccc1C(Cl)(Cl)Cl ... 104 % of control
CCCCCCCCSCCO ... 96 % of control
Nc1ccc(S(=O)(=O)c2ccc(NCCc3ccccn3)cc2)cc1 ... 97 % of control
N#CSc1c[nH]c2ccccc12 ... 104 % of control

Which T/C is reported with L1210 leukemia ip in BDF1 mice, survival T/C for this entry: `CO/C(Cc1cc(O)cc(O)c1)=N\N` ?
93 % of control

Which T/C is reported with L1210 leukemia ip in BDF1 mice, survival T/C for this entry: `CC(=O)Oc1cc(OC(C)=O)c(Oc2cc(OC(C)=O)c(OC(C)=O)c(OC(C)=O)c2)c(OC(C)=O)c1` ?
97 % of control

Which T/C is reported with L1210 leukemia ip in BDF1 mice, survival T/C for this entry: `O=[N+]([O-])c1ccc(NCCO)c([N+](=O)[O-])c1` ?
88 % of control

----------
Listing: T/C of selected compounds
system: L1210 leukemia ip in BDF1 mice, survival T/C; assay: NCI In Vivo Anticancer Drug Screen. Data for tumor model L1210 Leukemia (intraperitoneal) in B6D2F1 (BDF1) mice; conditions: endpoint: mean survival time; dose: 75.0 mg/kg/injection; schedule: Q01DX001 (ip); vehicle: saline; higher = longer survival
Toxic doses and inconclusive results are not listed.

CC1CCC2N(C1)CC1C3(O)CC45OC6(O)C(O)CCC4(C)C6CCC5C3(O)CC(O)C1(O)C2(C)O (stereo not given) ... 104 % of control
CCN(CC)CCN(C)CC(=O)Nc1cccc(Cl)c1C ... 101 % of control
C/C=C/CC1(C(C)C)C(=O)NC(=O)NC1=O ... 101 % of control
NN1CCCC1C(=O)O (stereo not given) ... 97 % of control
C=CCC1(CCCC)C(=O)NC(=O)NC1=O ... 89 % of control
COc1cc(CCN(C)C)cc(OC)c1OC ... 95 % of control
CCC1NCCc2cc(OC)c(O)cc21 (stereo not given) ... 106 % of control
NC(=O)OCC(N)C(=O)O (stereo not given) ... 96 % of control

Can you look up the measured T/C of `c1ccc(C[P+](Cc2ccccc2)(c2ccccc2)c2ccccc2)cc1` for me?
94 % of control

Can you look up the measured T/C of `Cc1[nH]nc(-c2cccnc2)c1N=NN(C)C` for me?
110 % of control

Can you look up the measured T/C of O=C1NC2(C=CC(Br)CC2)C(=O)C12CCCCC2 (stereo not given) for me?
104 % of control

Can you look up the measured T/C of `CNC(=O)Nc1c(O)nc(N)[nH]c1=O` for me?
103 % of control

Can you look up the measured T/C of `Cn1nc(SCc2ccccc2)c(=O)[nH]c1=O` for me?
97 % of control

Can you look up the measured T/C of `CCOC(=O)CCCN1CCC=C(C#N)C1` for me?
102 % of control

Can you look up the measured T/C of OCC1OC(n2nnc3c(=S)nc[nH]c32)C(O)C1O (stereo not given) for me?
102 % of control

----------
tested on: L1210 leukemia ip in BDF1 mice, survival T/C; assay: NCI In Vivo Anticancer Drug Screen. Data for tumor model L1210 Leukemia (intraperitoneal) in B6D2F1 (BDF1) mice; settings: endpoint: mean survival time; dose: 150.0 mg/kg/injection; schedule: Q04DX003 (ip); vehicle: Klucel (hydroxypropylcellulose) (HPC); higher = longer survival
Toxic doses and inconclusive results are not listed.
Listing: T/C of selected compounds

Clc1ccc(/C=C/c2ccc(Cl)cc2)cc1 ... 95 % of control
CCN(CC)CCCC(C)Nc1cc(N)nc2nc(-c3ccc(Cl)cc3)c(-c3ccc(Cl)cc3)nc12 (centres undefined) ... 93 % of control
O=C(Nc1ccc(Cl)cc1)OCC#CCOC(=O)Nc1ccc(Cl)cc1 ... 93 % of control

# ---- query compound ----
Which T/C is reported with L1210 leukemia ip in BDF1 mice, survival T/C for this entry: `O=C(C[n+]1cccc(OC(=O)c2ccccc2)c1)c1ccc(-c2ccccc2)cc1` ?
91 % of control

----------
Listing: T/C of selected molecules
System: L1210 leukemia ip in BDF1 mice, survival T/C
Experiment: NCI In Vivo Anticancer Drug Screen. Data for tumor model L1210 Leukemia (intraperitoneal) in B6D2F1 (BDF1) mice
Conditions: endpoint: mean survival time; dose: 200.0 mg/kg/injection; schedule: Q01DX001 (ip); vehicle: saline with Tween-80; higher = longer survival
Description: The antitumor activity of compounds was measured in mice bearing transplantable tumors. Survival or tumor size were measured and the results are expressed as the measurement made in the treated group (T) divided by the measurement made in the vehicle treated control group (C). The tumor model used in this assay is L1210 Leukemia (intraperitoneal) in B6D2F1 (BDF1) mice
Toxic doses and inconclusive results are not listed.

For orientation, consider the following solved cases.
C/C(=N/C(=O)NN)c1ccc(Cl)cc1 ... 95 % of control
CCOC(=O)C(C)(C)Oc1ccc(O)cc1 ... 105 % of control
COC(=O)c1cc(I)cc(I)c1N ... 98 % of control
CCOC(=O)CCC(NC(=O)c1ccc(NCc2nnc3nc(N)nc(SCc4ccccc4)c3n2)cc1)C(=O)OCC (stereo not given) ... 100 % of control

# ---- query molecule ----
Can you look up the measured T/C of `CCOc1ccc(N=[N+]([O-])c2ccc(OCC)cc2)cc1` for me?
103 % of control

----------
Listing: T/C of selected molecules
test system: L1210 leukemia ip in BDF1 mice, survival T/C; assay: NCI In Vivo Anticancer Drug Screen. Data for tumor model L1210 Leukemia (intraperitoneal) in B6D2F1 (BDF1) mice; conditions: endpoint: mean survival time; dose: 200.0 mg/kg/injection; schedule: Q01DX009 (ip); vehicle: Klucel (hydroxypropylcellulose) (HPC); higher = longer survival
Toxic doses and inconclusive results are not listed.

CCc1ccccc1NC(=O)Nc1ccc(S(N)(=O)=O)cc1 ... 97 % of control
COc1ccc(C(=O)Nc2ccccc2)cc1NC(=O)Nc1ccccc1C(F)(F)F ... 101 % of control
Cc1cc(=O)[nH]c2c(C)cccc12 ... 108 % of control
CCOc1ccc(NC(=O)c2c(Br)c(Br)c(Br)c(Br)c2C(=O)O)cc1 ... 87 % of control
O=C(O)c1occ(Cl)c1Cl ... 95 % of control

# ---- query molecule ----
Which T/C is reported with L1210 leukemia ip in BDF1 mice, survival T/C for this entry: `CCCCCN(C)N=Nc1ccccc1C(N)=O` ?
115 % of control

----------
Listing: T/C of selected compounds
system: L1210 leukemia ip in BDF1 mice, survival T/C; assay: NCI In Vivo Anticancer Drug Screen. Data for tumor model L1210 Leukemia (intraperitoneal) in B6D2F1 (BDF1) mice; details: endpoint: mean survival time; dose: 50.0 mg/kg/injection; schedule: Q04DX002 (ip); vehicle: Klucel (hydroxypropylcellulose) (HPC); higher = longer survival
Inconclusive results and toxic doses are left out. Square brackets hold non-standard residues; d marks the D form. Peptide text beside a SMILES is read from it. ξ: configuration not given here. ξD = NC(CC(=O)O)C(=O)O

For orientation, consider the following solved cases.
Cc1c(C)c(C)c(CN2CCCC2)c(C)c1C ... 112 % of control
CN(C)CCCC1(O)c2ccccc2Sc2cc(Cl)ccc21 (stereo not given) ... 99 % of control
Cn1c(Cl)c(C(=O)O)c2ccccc21 ... 97 % of control
COc1ccc(OC)c(-c2csc(=O)s2)c1 ... 97 % of control
COc1ccc(NC(=O)NCc2cccc(Cl)c2)cc1 ... 100 % of control

Can you look up the measured T/C of CN(C)CCC(c1ccccc1)c1nc(N)nc(C(CCN(C)C)c2ccccc2)n1 (stereo not given) for me?
102 % of control

Can you look up the measured T/C of NC(CC(=O)O)C(=O)NCC(=O)O (stereo not given) (H-[ξD]-Gly-OH) for me?
94 % of control

Can you look up the measured T/C of `O=C1c2ccccc2-c2ccc(-c3ccccc3)c3cccc1c23` for me?
105 % of control

Can you look up the measured T/C of `Clc1cc[c]([Sn]([O][Sn]([c]2ccc(Cl)cc2)([c]2ccc(Cl)cc2)[c]2ccc(Cl)cc2)([c]2ccc(Cl)cc2)[c]2ccc(Cl)cc2)cc1` for me?
91 % of control

Can you look up the measured T/C of NC(CCC(=O)O)C(=O)NC(CC(=O)O)C(=O)O (stereo not drawn) (H-Glu-Asp-OH; configuration not given here) for me?
98 % of control
